Molecular target: Reverse transcriptase/RNaseH (Human immunodeficiency virus 1, UniProt Q72547)
Assay: Ability to inhibit the HIV-1 reverse transcriptase in cord blood mononuclear cells.
endpoint: IC50 (nM)
Dear colleague, please return just the value in nM, with no unit written.

"Cc1cn([C@H]2C[C@H](N=[N+]=[N-])[C@@H](CO)O2)c(=O)[nH]c1=O" yielded IC50 of 30

The measurements presented in this section are drawn from BindingDB's records for doi:10.1021/jm00001a001.
